assay: physchem; conditions: pH 6.7, Solubility Conc.
Positions of bridges follow the written chain, without caps; N, C: chain ends. Non-standard residues stand in square brackets, D forms with d. Residues, ends and D or L forms follow the SMILES beside them. Groups on a side chain read outwards from the residue. *: point of attachment. Lys(CH2CO2H)2 = N[C@@H](CCCCN(CC(=O)O)CC(=O)O)C(=O)O; C17 diacid = O=C(O)CCCCCCCCCCCCCCCC(=O)*; C16 diacid = O=C(O)CCCCCCCCCCCCCCC(=O)*; Orn = NCCC[C@H](N)C(=O)O; AEEA = NCCOCCOCC(=O)O
Listing of recorded solubility by entry.

>  <Molecule>
CC(=O)N[C@H]1CCCCNC(=O)CC[C@@H](C(=O)N2CCC[C@H]2C(=O)N2CCC[C@H]2C(=O)N[C@@H](Cc2c[nH]cn2)C(=O)N[C@@H](CCC(=O)O)C(=O)N[C@@H](CCCCN(CC(=O)O)CC(=O)O)C(=O)N[C@@H](CCCCNC(=O)COCCOCCNC(=O)CCCCCCCCCCCCCCCC(=O)O)C(N)=O)NC(=O)[C@H](Cc2c[nH]c3ccccc23)NC(=O)[C@H](CCCNC(=N)N)NC(=O)[C@@H](Cc2ccccc2)NC(=O)[C@H](Cc2c[nH]cn2)NC1=O [Example 7] (Ac-KH[dF]RWEPPHE[Lys(CH2CO2H)2]K([AEEA-C17 diacid])-NH2; lactam 1-6)

>  <solubility>
408 µM

$$$$

// next entry
Ask: Quick one: solubility for CC(=O)N[C@H]1CCCNC(=O)C[C@@H](C(=O)N2CCC[C@H]2C(=O)N2CCC[C@H]2C(=O)N[C@@H](CCCNC(=N)N)C(=O)N[C@@H](CCC(=O)O)C(=O)N[C@@H](CCCCN(CC(=O)O)CC(=O)O)C(=O)N[C@@H](CCCCNC(=O)COCCOCCNC(=O)CCCCCCCCCCCCCCC(=O)O)C(N)=O)NC(=O)[C@H](Cc2c[nH]c3ccccc23)NC(=O)[C@H](CCCNC(=N)N)NC(=O)[C@@H](Cc2ccccc2)NC(=O)[C@H](Cc2c[nH]cn2)NC1=O [Example 42] (Ac-[Orn]H[dF]RWDPPRE[Lys(CH2CO2H)2]K([AEEA-C16 diacid])-NH2; lactam 1-6) ?
Result: 421 µM

----------
assay: physchem; conditions: pH 5.8, Solubility Conc.
Positions of bridges follow the written chain, without caps; N, C: chain ends. Non-standard residues stand in square brackets, D forms with d. Residues, ends and D or L forms follow the SMILES beside them. Groups on a side chain read outwards from the residue. *: point of attachment. Lys(CH2CO2H)2 = N[C@@H](CCCCN(CC(=O)O)CC(=O)O)C(=O)O; C17 diacid = O=C(O)CCCCCCCCCCCCCCCC(=O)*; C16 diacid = O=C(O)CCCCCCCCCCCCCCC(=O)*; Orn = NCCC[C@H](N)C(=O)O; AEEA = NCCOCCOCC(=O)O
Value kind: solubility
Please answer using the number first and the unit second.

>  <Molecule>
CC(=O)N[C@H]1CCCNC(=O)C[C@@H](C(=O)N2CCC[C@H]2C(=O)N2CCC[C@H]2C(=O)N[C@@H](Cc2c[nH]cn2)C(=O)N[C@@H](CCC(=O)O)C(=O)N[C@@H](CCCCN(CC(=O)O)CC(=O)O)C(=O)N[C@@H](CCCCNC(=O)COCCOCCNC(=O)CCCCCCCCCCCCCCC(=O)O)C(N)=O)NC(=O)[C@H](Cc2c[nH]c3ccccc23)NC(=O)[C@H](CCCNC(=N)N)NC(=O)[C@@H](Cc2ccccc2)NC(=O)[C@H](Cc2c[nH]cn2)NC1=O [Example 51] (Ac-[Orn]H[dF]RWDPPHE[Lys(CH2CO2H)2]K([AEEA-C16 diacid])-NH2; lactam 1-6)

>  <Value kind>
solubility

>  <Result>
280 µM

$$$$

Moving on to another molecule below.
Ask: Could you tell me which solubility is on file for CC(=O)N[C@H]1CCCCNC(=O)CC[C@@H](C(=O)N2CCC[C@H]2C(=O)N2CCC[C@H]2C(=O)N[C@@H](Cc2c[nH]cn2)C(=O)N[C@@H](CCC(=O)O)C(=O)N[C@@H](CCCCN(CC(=O)O)CC(=O)O)C(=O)N[C@@H](CCCCNC(=O)COCCOCCNC(=O)CCCCCCCCCCCCCCCC(=O)O)C(N)=O)NC(=O)[C@H](Cc2c[nH]c3ccccc23)NC(=O)[C@H](CCCNC(=N)N)NC(=O)[C@@H](Cc2ccccc2)NC(=O)[C@H](Cc2c[nH]cn2)NC1=O [Example 7] (Ac-KH[dF]RWEPPHE[Lys(CH2CO2H)2]K([AEEA-C17 diacid])-NH2; lactam 1-6) ?
Result: 121 µM
